Provenance of the data: patent US12528816B2

- Measured On: human CaMKIIδ (Homo sapiens, UniProt Q13557)
- Construct: Full-length, glutathione-S-transferase(GST)-tagged, human CaMKIIδ was purchased from Carna Biosciences; purchased Carna Biosciences (CaMKIIδ); Wako Pure Chemical Industries (calmodulin) 02-111
- Procedure Details: Evaluation of in vitro CaMKII inhibitory activity (binding assay, TR-FRET)
- Experimental Parameters: in vitro CaMKII inhibitory activity (binding assay), human CaMKIIδ; read-out: Act
- Protocol: Evaluation of In Vitro CaMKII Inhibitory Activity (Binding Assay) In vitro CaMKIIδ inhibitory activity was evaluated by a binding assay. Full-length bovine calmodulin was purchased from Wako Pure Chemical Industries (Osaka, Japan). […] Time-resolved fluorescence resonance energy transfer (TR-FRET) assay […] The half maximal inhibitory concentration (IC50) of test compounds was calculated by fitting the data with the logistic equation using XLfit (IDBS, Guildford, UK).
Would you kindly list IC50 for each of these compounds?

Request: Hi! What's the reported IC50 for C[C@@H](Cn1cnnn1)Oc1cccc(-c2ccc3ncc(-c4nc(Cl)ccc4C#N)n3n2)c1 on human CaMKIIδ (Homo sapiens, UniProt Q13557)?
Result: < 10 nM

Request: Reported IC50 for human CaMKIIδ (Homo sapiens, UniProt Q13557), given COc1cc(-c2cnc3ccc(-c4cccc(O[C@@H](C)Cn5cnnn5)c4)nn23)c(F)cn1 ?
Result: < 10 nM

Request: Form field: IC50 recorded for C[C@@H](Cn1cnnn1)Oc1cccc(-c2ccc3ncc(-c4ccc(C#N)c(F)n4)n3n2)c1 with human CaMKIIδ (Homo sapiens, UniProt Q13557) (enter value)
Result: < 10 nM

Request: Query the reported IC50 for human CaMKIIδ (Homo sapiens, UniProt Q13557); item: COc1cc(F)cc(-n2cnc3ccc(-c4ccc(F)c(O[C@@H](C)Cn5cnnn5)n4)nc32)c1C#N
Result: < 10 nM

Request: IC50, test system human CaMKIIδ (Homo sapiens, UniProt Q13557), entry C[C@@H](Cn1cnnn1)Oc1cccc(-c2ccc3ncc(-c4[nH]c(=O)ccc4C#N)n3n2)c1
Result: < 10 nM

Request: Quick check: IC50 on human CaMKIIδ (Homo sapiens, UniProt Q13557), item COc1ccc(C#N)c(-c2cnc3ccc(-c4cccc(O[C@@H](C)Cn5cnnn5)n4)nn23)c1 ?
Result: < 10 nM

Request: Given the entry COc1ccnc(-c2c(F)nn3ccc(-c4cccc(O[C@@H](C)Cn5cnnn5)c4)nc23)c1C#N , what IC50 was observed with human CaMKIIδ (Homo sapiens, UniProt Q13557)?
Result: 10 to 100 nM

Request: Hello, I am looking for reported IC50 with human CaMKIIδ (Homo sapiens, UniProt Q13557) for C[C@@H](Cn1cnnn1)Oc1cc(-c2ccc3ncc(-c4ccc(=O)[nH]c4C#N)n3n2)ccc1F . Could you help?
Result: < 10 nM

Request: Item: COc1nccc(-c2cnc3ccc(-c4ccc(F)c(O[C@@H](C)Cn5cnnn5)c4)nn23)c1C#N Test system: human CaMKIIδ (Homo sapiens, UniProt Q13557) Read-out: IC50 Value: ?
Result: < 10 nM

Request: Notebook: pull reported IC50 for human CaMKIIδ (Homo sapiens, UniProt Q13557), entry Cc1ccnc(-c2cnc3ccc(-c4cccc(O[C@@H](C)Cn5cnnn5)c4)nn23)c1C#N
Result: < 10 nM

Request: Could you share what IC50 was measured for CCc1ccnc(-c2cnc3ccc(-c4cccc(O[C@@H](C)Cn5cnnn5)c4)nn23)c1C#N , tested on human CaMKIIδ (Homo sapiens, UniProt Q13557)?
Result: < 10 nM

Request: What measured IC50 is associated with C[C@@H](Cn1cnnn1)Oc1cccc(-c2ccc3ncn(-c4cc(C(F)F)ccc4C#N)c3n2)c1 on human CaMKIIδ (Homo sapiens, UniProt Q13557)?
Result: < 10 nM

Request: Value wanted: IC50 (human CaMKIIδ (Homo sapiens, UniProt Q13557)) of entry COc1ccnc(-c2cnc3ccc(-c4ccc(F)c(O[C@@H](C)Cn5cnnn5)c4)nn23)c1C#N
Result: < 10 nM

Request: // fetch human CaMKIIδ (Homo sapiens, UniProt Q13557) IC50 for C[C@@H](Cn1cnnn1)Oc1cc(-c2ccc3ncc(-c4cccc(N=S5(=O)CCCC5)c4C#N)n3n2)ccc1F
Result: < 10 nM

Request: Lookup: IC50 / human CaMKIIδ (Homo sapiens, UniProt Q13557) / Cc1cc(-c2cnc3ccc(-c4cccc(O[C@@H](C)Cn5cnnn5)c4)nn23)c(=O)n(C)c1
Result: < 10 nM

Request: Test system human CaMKIIδ (Homo sapiens, UniProt Q13557); read-out IC50; what value for CCOc1ccnc(-c2cnc3ccc(-c4cccc(O[C@@H](C)Cn5cnnn5)c4)nn23)c1C#N ?
Result: < 10 nM

Request: Request body: readout IC50, system human CaMKIIδ (Homo sapiens, UniProt Q13557), query COc1ccnc(-c2cnc3ccc(-c4cccc(O[C@@H](C)Cn5cnnn5)n4)nn23)c1C#N . Return the value.
Result: 10 to 100 nM

Request: Enter reported IC50 observed with human CaMKIIδ (Homo sapiens, UniProt Q13557) for C[C@@H](Cn1cnnn1)Oc1cc(-c2ccc3ncc(-c4cc(F)ccc4C#N)n3n2)ncn1
Result: 10 to 100 nM

Request: Form field - read-out: IC50; system: human CaMKIIδ (Homo sapiens, UniProt Q13557); submitted item: COc1ncc(C#N)c(-c2cnc3ccc(-c4cccc(O[C@@H](C)Cn5cnnn5)c4)nn23)n1
Result: < 10 nM

Request: What is its IC50 for human CaMKIIδ (Homo sapiens, UniProt Q13557)? Entry: C[C@@H](Cn1cnnn1)Oc1cccc(-c2ccc3ncc(-c4ncnc(N(C)C)c4C#N)n3n2)c1
Result: 10 to 100 nM

Request: Query the reported IC50 for human CaMKIIδ (Homo sapiens, UniProt Q13557); item: C[C@@H](Cn1cnnn1)Oc1cc(-c2ccc3ncc(-c4ccsc4C(=O)O)n3n2)ccc1F
Result: > 100 nM

Request: Form field: IC50 recorded for C[C@@H](Cn1cnnn1)Oc1cc(-c2ccc3ncc(-c4cc(F)ccc4C#N)n3n2)ccc1F with human CaMKIIδ (Homo sapiens, UniProt Q13557) (enter value)
Result: < 10 nM

Request: // lookup IC50 | system=human CaMKIIδ (Homo sapiens, UniProt Q13557) | key= C[C@@H](Cn1cnnn1)Oc1cc(-c2ccc3ncc(-c4cc(F)cn(C)c4=O)n3n2)ccc1F
Result: < 10 nM

Request: Reported IC50 for human CaMKIIδ (Homo sapiens, UniProt Q13557), given CCOc1ccnc(-n2cnc3ccc(-c4cccc(O[C@@H](C)Cn5cnnn5)c4)nc32)c1C#N ?
Result: < 10 nM

Request: IC50 of CNC(=O)c1sccc1-c1cnc2ccc(-c3ccc(F)c(O[C@@H](C)Cn4cnnn4)c3)nn12 on human CaMKIIδ (Homo sapiens, UniProt Q13557)?
Result: 10 to 100 nM

Request: human CaMKIIδ (Homo sapiens, UniProt Q13557) / IC50 / C[C@@H](Cn1cnnn1)Oc1cncc(-c2ccc3ncc(-c4cc(F)ccc4C#N)n3n2)n1 : value?
Result: < 10 nM

Request: Reported IC50 for human CaMKIIδ (Homo sapiens, UniProt Q13557), given C[C@@H](Cn1cnnn1)Oc1cccc(-c2ccc3ncc(-c4cccn(C)c4=O)n3n2)c1 ?
Result: < 10 nM

Request: // lookup IC50 | system=human CaMKIIδ (Homo sapiens, UniProt Q13557) | key= COc1cccc(-c2cnc3ccc(-c4ccc(F)c(O[C@@H](C)Cn5cnnn5)c4)nn23)n1
Result: < 10 nM

Request: Which measured IC50 belongs to C[C@@H](Cn1cnnn1)Oc1cccc(-c2ccc3ncc(-c4cc(F)ccc4C#N)n3n2)n1 , tested on human CaMKIIδ (Homo sapiens, UniProt Q13557)?
Result: < 10 nM

Request: human CaMKIIδ (Homo sapiens, UniProt Q13557) / IC50 / COc1nccc(-c2cnc3ccc(-c4cccc(O[C@@H](C)Cn5cnnn5)c4)nn23)c1C#N : value?
Result: < 10 nM
